test: yeast display, Sf9 membrane polyspecificity reagent, FACS + sequencing; frameworks hold sequencing errors

- residue.string: "QVQIVESGGGLVQAGGSLRLSCAASGRTFYLNAMGWYRQAPGKERELVAANRFSGGSTYYADSVKGRFTISRDNAQNTVYLQMNSLKPEDTAVYYCIAGADHALYPTVSEYGYWGQGTQVTVSS"
  polyreactivity (PSR sort gate): "low polyreactivity"
- residue.string: "QVHLVESVGGLVQAGGSLRLICAASGRIFRRYAMGWYIQAPGKEREFVAAISYGGGSTYYADSVKGRFTISRDNAKNTVYLQMNSLKPEDSAVYYCNADVPKSLLLYYPWGYGYWGQGTQVTVSS"
  polyreactivity (PSR sort gate): "low polyreactivity"

* * *

test: yeast display, Sf9 membrane polyspecificity reagent, FACS + sequencing; frameworks hold sequencing errors

- residue.string: "QVLIVESGGGLVQAGGSLRLSCADSGLTLAHYTMGWYRQSPGKERELVAAITFSGGRTYYADSVKGRFTISRDNAKNTVYLQMNSLKPEDTAVYYCNDEYQWGGYGYDYWGQGTQVTVSS"
  polyreactivity (PSR sort gate): "low polyreactivity"
- residue.string: "QVQLVESAGGLVQAGGSLRLSCAASGSTFDYYAMGWYRQAPGKERELVASITWGDGSTYYADSVKGRFTISRDNAKNTVYLQMNSLKPEDTAVYYCNADDTQLESYAPGHGYDYWGQGTQVTVSS"
  polyreactivity (PSR sort gate): "low polyreactivity"

* * *

test: yeast display, Sf9 membrane polyspecificity reagent, FACS + sequencing; frameworks hold sequencing errors
parameter.measured: polyreactivity (PSR sort gate)

Solved cases (8 shown):
- residue.string: "QVQLVESGGGLVQAGGSLRLSCAASGSTFSRYTMGWYRQAPGKERELVAAITWSGGRTYYADSVKGRFTISRDNAKNTVYLQMNSLKPEDTAVSYCNVDSSRYSGYDYWGQGTQVTVSS"
  polyreactivity (PSR sort gate): "high polyreactivity"
- residue.string: "QVQLVESGGGLVQAGGSLRLSCAASGFTFRRYAMGWYRQAPGKERELVAAITRGGSTYYADSVKGRFTISRDNAKNTVYLQMNSLKPEDTAVYYCAARGGTRYSTRSYGYWGQGTQVTVSS"
  polyreactivity (PSR sort gate): "high polyreactivity"
- residue.string: "QDQLVESGGGLVQAGGSLRFSCASSGRIFRSYGMGWYRQAPGKERELVARIRNRGGSTYAHSVKGRFTISRDNAKNSVYLQMNSLKPEDTAVYYCAAGAYRHSVFSYDYWGQGTQVTVSS"
  polyreactivity (PSR sort gate): "high polyreactivity"
- residue.string: "QVQLVESGGGLVQAGGSLRLSCAASGRTFTTYAMGWYRQAPGKERELVAAISGSGGSTYYADSVKGRFTISRDNAKNTVYLQMNSLKPEDTAVYYCATAYYYHGGYYYPYDDDWGQGTQVTVSS"
  polyreactivity (PSR sort gate): "low polyreactivity"
- residue.string: "QVQLEESGGRLVQAGGSLRLTCAASGRTYARYAIGWNRQAPGKERQLVAAISRGGTTNYADSVKGRFTISRDNAKNTVYLQMNSLKPEDTAVYYCNRDFHLIHLSSARLDYWGQGTQVTVSS"
  polyreactivity (PSR sort gate): "low polyreactivity"
- residue.string: "QVQLVESGGGLVQAGGSLRLSCAASGSIFSGNAMGWYRQAPGKERELVAAITSSGGSTYYADSVKGRFTISRDNAKNTVYLQMNSLKPEDTAVYYCAKDYYSKHFPIYDYWGQGTQVTVSS"
  polyreactivity (PSR sort gate): "low polyreactivity"
- residue.string: "QVQLVESGGGLLQAGGSLRLSCAASGFIFGRNAMGWYRQAPGKERELVAAITRSGGSTYYADSVKGRFTISRDNAKNTVYLQMISLKTEDTAVYYCAKGDFYWGVFRVGIRDDYWGQGTQVNVSS"
  polyreactivity (PSR sort gate): "high polyreactivity"
- residue.string: "QVQLVESGGGLVQAGGSLRLSCAASGNTFPAYAMGWYRQAPGKERELVATISWSTGSTNYADSVKGRFTISRDIAKNTVYLQMNSLKPEDTAVYYCNKELYDFKDRNLKAFLLRIFDSWGQGTQVTVSS"
  polyreactivity (PSR sort gate): "low polyreactivity"

Given the sequence QVQLVESGGGLVQAGGSLRLSCAASGSTRRYFKGWYRQAPGKERELVAVISRGGSTYYADSVKGRFTISGDNAKNTVYLQMNSLKPEDTAVYYCNVQPVIPRGGDYWGQGTQVTVSS , what is its reported polyreactivity (PSR sort gate)?
high polyreactivity

Next sequence: QVQLVESGGGLVQAGGSLRLSCAASGRTFTRNAMGWYRQAPGKERELVAAITRGASTYYADSVKGRFTISRDNAKNTVYLQMNSLKPEDTAVYYCAVSQYRGIYRKYDYWGQGTQVTVSS
high polyreactivity

Next sequence: QVQLVESGGGLVQAGGSLRLSCAASGSTFTAYAMGWYRQAPGKERELVAVITSGGGTFYADSVKGRFTISRDNAKNTVYLQMNSLKPEDTAVYYCNAARTYPGTYIYRYGYWGQGTQVTVSP
high polyreactivity

Next sequence: QVQHVESGVGLVQAGGRLRLSCAASGRTFSSNAMGWYRKAPGKERELVAAISSSGGRTYYADSVKGRFTISRDNAKNTVYLDMNSLKQEDTAVYYCAVVYFPIWASYPYWWEYDYWGHGTQVTVSS
high polyreactivity

Next sequence: QVQLVESGGGLVQAGGSLRLSCAASGRTFTLNAMGWYRQAPGKERELVAAISGDTGSTYYADSVKGRFTISRDNAKNTVFLQMNSLKPEDTAVYYCATRHAGTWYYWFERYYWGQGTQVTVSS
high polyreactivity

Next sequence: QVQLVDSGGGLVQAGGSISLSCAASGRTFFVNAMGWYRQAPGKERELVAAITRRGGITYYADSVKGRFTISRDNAKNTVYLQMNSLKPEDTAVYYCAADRSYYPDTRTTYGYNYWGQGTQVTVSS
low polyreactivity

Next sequence: QVQLVESGGGLVQAGGSLRLSCAASGYIFGVYTMGWYRQAPGKERELVAGISSGSSTYYADSVKGRFTISRDNAKNTVYLQMNSLKPEDTAVYYCAARERSRTYTSRKQVDYGYGYWGQGTQVTVSS
low polyreactivity

Next sequence: QVQLVESGGGLVQAGGSLRLSCAASGITFWKYTMGWYIHAPGKERELVASITWSGGSTYYADSVKGRFTISRDNAKNTVYLQMNSLKPEDTAVYYCNAEYLRIDLDYWGQGTQVTVSS
low polyreactivity

* * *

test: yeast display, Sf9 membrane polyspecificity reagent, FACS + sequencing; frameworks hold sequencing errors
parameter.measured: polyreactivity (PSR sort gate)

Solved cases (4 shown):
- residue.string: "QVQLVESGGGLVQAGGSLRLSCAASGRIFVRYAMGWYRPAPGKERELVATISSRGGSTYYADSVKGRFTISRDNAKNTVYLQMTSLKPEDTAVYYWAAYVYPWGRDYWGQGTQVTVSS"
  experimental.value: "high polyreactivity"
- residue.string: "QVQLVESGGGLVQAGGSLRLSCAASGSILGGNAMGWYRKAPGKERELVAAITFSGGGTYYADSVKGRFTISRDNAKNTVYLHMNSLKPEDTAVYYCAADKDGYTYEFDYWGQGTQGTVSS"
  experimental.value: "low polyreactivity"
- residue.string: "QDQLVESGGGLVQAGGSLRLSSAASGFTFAHYARGWYRQAPGKERELVAAISGSGSSTYYADSVKGRFTISRDNAKNTVYLQMNSLKPEDTAVYYCNVRWYFLYDYWGQGTQVTVSS"
  experimental.value: "low polyreactivity"
- residue.string: "QVQLVESGGGLVQAGGSLRLSCAASGLTFRRYDMGWNRQAPGKEREFVAAITWSTGSTYYADSVKGRFTISRDNAKNTDYLPMNSLKPEDTAVYYCAARSGYFYRYYKYDYWGQGTQVTVSS"
  experimental.value: "high polyreactivity"

Given the sequence QVQLVESGGGLVQAGGSLRLTCAASRRTFEHYAMGWYRQAPVKEREYVAAINSSDGGTYYADSVKGRFTISRDNAKNTVYLQMIRLKPDDSAVYYCAAAEFGSVPGYEMDYWGQGTQVTVSS , what is its reported polyreactivity (PSR sort gate)?
low polyreactivity

* * *

test: yeast display, Sf9 membrane polyspecificity reagent, FACS + sequencing; frameworks hold sequencing errors
parameter.measured: polyreactivity (PSR sort gate)

- residue.string: "QVQLVESGGGLVQAGGSLRLSCAASGRIFGRYAKGWYRQAPGKEMELVAAISRSGGSTYYADSVKGRFTISRDNAKNTVYLQMNSLKPEDTAVYDCAAVPGISVGRQPGYDSDYWGQGTQVTVSS"
  experimental.value: "low polyreactivity"
- residue.string: "QVQLVESGGGLVHAGGSHRLSCAASGLIFRRNPMGWYRQAPGKERELVAAISRTGGSTYYADSVKGSFTISRDNAKNTFYLQMNSMKPEYTAVYYCASDNRDYDYTYEYWGQGTQVTVSS"
  experimental.value: "low polyreactivity"

* * *

test: yeast display, Sf9 membrane polyspecificity reagent, FACS + sequencing; frameworks hold sequencing errors
parameter.measured: polyreactivity (PSR sort gate)

Solved cases (6 shown):
- residue.string: "QVQLVESGGGLVQAGGSLRLSCAASGGMGWYRQAPGKERELVATISSVGSTNYADSVKGRFTISRDNAKNTVYLQMNSLKPEDTAVYYCAADYGSDYTKGDYWGQGTQVTVSS"
  experimental.value: "low polyreactivity"
- residue.string: "QDQLVESGGGLVQAGGSLRLSCAASGFTIDPYAMGWYRPAPGKERELVAGISWSGGSTYYADSVKGRFTISRDNAKNTVYLQMNSLKPEVTAVYYCARDYSWLTRGSDYDYWGQGTQVTVSS"
  experimental.value: "low polyreactivity"
- residue.string: "QVQLVESGGGLVQAGGSLRLSCAASGRTFSAYAMGWYRQAPGKERELVARITSVDSTNYADSVKGRFTISRDNAKNTVYLQMNSLKPEDTAVYYCNATFGYPFVDYDDYWGQGTQVTGSS"
  experimental.value: "low polyreactivity"
- residue.string: "QVQLVESGGGLVQAGGSLRLSCAASGRIFYANAMGWYRQAPGKEWEFVASITYGGGSTYYADSVKGRFTISRDNAKNTVYLQMNSLKPEDTAVYYCAAGYYAQYEDYIRYDYWGQGTQVTVSS"
  experimental.value: "low polyreactivity"
- residue.string: "QVQLLESGGGLVQAGGSLRLSCAASGRIFRAYAMGWYRQAPGKERELVAAISWRYGSTYYADSVKGRFTISRDNAKNTVYLQMNSVKPEDTAVYYCAAEYDWPGYDYWGQGTQVTVSS"
  experimental.value: "high polyreactivity"
- residue.string: "QVQHVESGGGLVQAGGSLRLSCAASVRTLYYYAMGWSRQAPGKERELVAAISGGGRTYYADSVKGRFTISRDNAKNTVYLQMIILKPEDTAVYYCAARYRKSGLDNYWGQGTQVTVSS"
  experimental.value: "high polyreactivity"

Given the sequence QVQLVESGGGLVQAGGSLRLSCPDSGFIFYLYDMGWYRQAPGKEREVVAAITDRGGSTYYADSVKGRFTITRDNAKITVYLQLKSLKPEDTAVYSCAAASSAIDSSVTMDYWGQGTQVTVSS , what is its reported polyreactivity (PSR sort gate)?
low polyreactivity

Next sequence: QVQLVETGGGLVQAGGSLRLSCAASGSIFLKYAMGWYRQAPGKERELVAAISWSGGRTYYADSVKGRFTISRDNAKNTVYLQMNSLIPEDTAVYYCAAAGRVNNGYRGYGYWGQGTQVTVSS
high polyreactivity

All values here come from the nanobody polyreactivity screen of Harvey et al. (2022).
